system: Pseudomonas aeruginosa; assay: Antibacterial activity against Pseudomonas aeruginosa ATTC 27853 assessed as zone of inhibition after 16 to 18 hrs by serial plate dilution method; type: functional, ATCC27853
Property Name: inhibition zone (IZ)

# Structure Smiles String, Assay Value
data = [
    ("NC(=O)c1cc(-c2csc(-c3cc(Cl)cc(Cl)c3Cl)n2)ccc1O", "16 mm"),
    ("CSc1ccc(-c2csc(N/N=C/c3cc(Cl)cc(Cl)c3Cl)n2)cc1", "16 mm"),
    ("Clc1cc(Cl)c(Cl)c(-c2nc(CN3CCCCC3)cs2)c1", "11 mm"),
    ("CSc1ccc(-c2csc(-c3cc(Cl)cc(Cl)c3Cl)n2)cc1", "16 mm"),
    ("O=[N+]([O-])c1ccc(-c2csc(N/N=C/c3cc(Cl)cc(Cl)c3Cl)n2)cc1", "<10 mm"),
    ("NC(=O)c1cc(-c2csc(N/N=C/c3cc(Cl)cc(Cl)c3Cl)n2)ccc1O", "16 mm"),
    ("COc1ccc(-c2csc(N/N=C/c3cc(Cl)cc(Cl)c3Cl)n2)cc1", "<10 mm"),
    ("Cc1cc(C)nc(SCc2csc(-c3cc(Cl)cc(Cl)c3Cl)n2)n1", "16 mm"),
    ("Clc1cc(Cl)c(Cl)c(/C=N/Nc2nc(-c3ccc(-c4ccccc4)cc3)cs2)c1", "<10 mm"),
    ("O=[N+]([O-])c1ccc(-c2csc(-c3cc(Cl)cc(Cl)c3Cl)n2)cc1", "16 mm"),
    ("Clc1ccc(-c2csc(-c3cc(Cl)cc(Cl)c3Cl)n2)cc1", "16 mm"),
    ("O=C(O)c1cn(C2CC2)c2cc(N3CCNCC3)c(F)cc2c1=O", "16 mm"),
    ("Clc1cc(Cl)c(Cl)c(-c2nc(-c3ccc(-c4ccccc4)cc3)cs2)c1", "11 mm"),
    ("COc1ccc(-c2csc(-c3cc(Cl)cc(Cl)c3Cl)n2)cc1", "11 mm"),
    ("Clc1cc(Cl)c(Cl)c(-c2nc(CN3CCOCC3)cs2)c1", "<10 mm"),
    ("CN1CCN(Cc2csc(-c3cc(Cl)cc(Cl)c3Cl)n2)CC1", "16 mm"),
    ("Clc1ccc(-c2csc(N/N=C/c3cc(Cl)cc(Cl)c3Cl)n2)cc1", "<10 mm"),
    ("Clc1cc(Cl)c(Cl)c(-c2nc(-c3cccnc3)cs2)c1", "<10 mm"),
    ("Clc1cc(Cl)c(Cl)c(/C=N/Nc2nc(-c3cccnc3)cs2)c1", "11 mm"),
]

----------
tested on: Talaromyces marneffei; experiment: Antifungal activity against Penicillium marneffei by serial plate dilution method; type: functional
Property Name: MIC (mg/L)

# Structure Smiles String, Unit Abbrev, Assay Value
records = [
    ("Clc1ccc(-c2csc(-c3cc(Cl)cc(Cl)c3Cl)n2)cc1", "mg/L", 25),
    ("Clc1cc(Cl)c(Cl)c(-c2nc(-c3cccnc3)cs2)c1", "mg/L", 6.25),
    ("Cc1cc(C2CCCCC2)n(O)c(=O)c1.NCCO", "mg/L", 6.25),
    ("COc1ccc(-c2csc(N/N=C/c3cc(Cl)cc(Cl)c3Cl)n2)cc1", "mg/L", 25),
    ("NC(=O)c1cc(-c2csc(N/N=C/c3cc(Cl)cc(Cl)c3Cl)n2)ccc1O", "mg/L", 12.5),
    ("COc1ccc(-c2csc(-c3cc(Cl)cc(Cl)c3Cl)n2)cc1", "mg/L", 25),
    ("CN1CCN(Cc2csc(-c3cc(Cl)cc(Cl)c3Cl)n2)CC1", "mg/L", 25),
    ("CSc1ccc(-c2csc(N/N=C/c3cc(Cl)cc(Cl)c3Cl)n2)cc1", "mg/L", 25),
    ("Clc1cc(Cl)c(Cl)c(-c2nc(CN3CCCCC3)cs2)c1", "mg/L", 25),
]

----------
This listing pairs compounds with measured MIC.
system: Aspergillus fumigatus; assay: Antifungal activity against Aspergillus fumigatus NCIM No.902 by serial plate dilution method; assay type: functional

# Structure Smiles String, MIC (µg/mL)
data = [
    ("Clc1cc(Cl)c(Cl)c(-c2nc(CN3CCOCC3)cs2)c1", 25),
    ("Clc1cc(Cl)c(Cl)c(-c2nc(-c3ccc(-c4ccccc4)cc3)cs2)c1", 6.25),
    ("Clc1cc(Cl)c(Cl)c(-c2nc(-c3cccnc3)cs2)c1", 6.25),
]

----------
tested on: Talaromyces marneffei; test: Antifungal activity against Penicillium marneffei by serial plate dilution method; assay type: functional
MIC values, listed per item
Property Name: MIC

# Structure Smiles String, Assay Value
data = [
    ("Clc1cc(Cl)c(Cl)c(-c2nc(CN3CCOCC3)cs2)c1", "12.5 µg/mL"),
    ("O=[N+]([O-])c1ccc(-c2csc(N/N=C/c3cc(Cl)cc(Cl)c3Cl)n2)cc1", "25 µg/mL"),
    ("CSc1ccc(-c2csc(-c3cc(Cl)cc(Cl)c3Cl)n2)cc1", "25 µg/mL"),
    ("Clc1cc(Cl)c(Cl)c(/C=N/Nc2nc(-c3cccnc3)cs2)c1", "6.25 µg/mL"),
    ("Clc1cc(Cl)c(Cl)c(-c2nc(-c3ccc(-c4ccccc4)cc3)cs2)c1", "6.25 µg/mL"),
    ("Clc1cc(Cl)c(Cl)c(/C=N/Nc2nc(-c3ccc(-c4ccccc4)cc3)cs2)c1", "6.25 µg/mL"),
    ("Cc1cc(C)nc(SCc2csc(-c3cc(Cl)cc(Cl)c3Cl)n2)n1", "6.25 µg/mL"),
    ("NC(=O)c1cc(-c2csc(-c3cc(Cl)cc(Cl)c3Cl)n2)ccc1O", "6.25 µg/mL"),
    ("Clc1ccc(-c2csc(N/N=C/c3cc(Cl)cc(Cl)c3Cl)n2)cc1", "12.5 µg/mL"),
    ("O=[N+]([O-])c1ccc(-c2csc(-c3cc(Cl)cc(Cl)c3Cl)n2)cc1", "25 µg/mL"),
]

----------
The molecules listed here are annotated with their MIC.
test system: Aspergillus fumigatus; test: Antifungal activity against Aspergillus fumigatus NCIM No.902 by serial plate dilution method; type: functional

# Structure Smiles String, MIC (µg/mL)
measured = [
    ("Cc1cc(C2CCCCC2)n(O)c(=O)c1.NCCO", 6.25),
    ("O=[N+]([O-])c1ccc(-c2csc(N/N=C/c3cc(Cl)cc(Cl)c3Cl)n2)cc1", 25),
    ("Clc1cc(Cl)c(Cl)c(/C=N/Nc2nc(-c3cccnc3)cs2)c1", 6.25),
    ("Cc1cc(C)nc(SCc2csc(-c3cc(Cl)cc(Cl)c3Cl)n2)n1", 25),
    ("COc1ccc(-c2csc(-c3cc(Cl)cc(Cl)c3Cl)n2)cc1", 25),
    ("CSc1ccc(-c2csc(-c3cc(Cl)cc(Cl)c3Cl)n2)cc1", 12.5),
]
